Molecular target: Full length human recombinant PIKFYVE (Homo sapiens)
Construct: Full length human recombinant PIKFYVE
Sequence (Q9Y2I7 whole entry): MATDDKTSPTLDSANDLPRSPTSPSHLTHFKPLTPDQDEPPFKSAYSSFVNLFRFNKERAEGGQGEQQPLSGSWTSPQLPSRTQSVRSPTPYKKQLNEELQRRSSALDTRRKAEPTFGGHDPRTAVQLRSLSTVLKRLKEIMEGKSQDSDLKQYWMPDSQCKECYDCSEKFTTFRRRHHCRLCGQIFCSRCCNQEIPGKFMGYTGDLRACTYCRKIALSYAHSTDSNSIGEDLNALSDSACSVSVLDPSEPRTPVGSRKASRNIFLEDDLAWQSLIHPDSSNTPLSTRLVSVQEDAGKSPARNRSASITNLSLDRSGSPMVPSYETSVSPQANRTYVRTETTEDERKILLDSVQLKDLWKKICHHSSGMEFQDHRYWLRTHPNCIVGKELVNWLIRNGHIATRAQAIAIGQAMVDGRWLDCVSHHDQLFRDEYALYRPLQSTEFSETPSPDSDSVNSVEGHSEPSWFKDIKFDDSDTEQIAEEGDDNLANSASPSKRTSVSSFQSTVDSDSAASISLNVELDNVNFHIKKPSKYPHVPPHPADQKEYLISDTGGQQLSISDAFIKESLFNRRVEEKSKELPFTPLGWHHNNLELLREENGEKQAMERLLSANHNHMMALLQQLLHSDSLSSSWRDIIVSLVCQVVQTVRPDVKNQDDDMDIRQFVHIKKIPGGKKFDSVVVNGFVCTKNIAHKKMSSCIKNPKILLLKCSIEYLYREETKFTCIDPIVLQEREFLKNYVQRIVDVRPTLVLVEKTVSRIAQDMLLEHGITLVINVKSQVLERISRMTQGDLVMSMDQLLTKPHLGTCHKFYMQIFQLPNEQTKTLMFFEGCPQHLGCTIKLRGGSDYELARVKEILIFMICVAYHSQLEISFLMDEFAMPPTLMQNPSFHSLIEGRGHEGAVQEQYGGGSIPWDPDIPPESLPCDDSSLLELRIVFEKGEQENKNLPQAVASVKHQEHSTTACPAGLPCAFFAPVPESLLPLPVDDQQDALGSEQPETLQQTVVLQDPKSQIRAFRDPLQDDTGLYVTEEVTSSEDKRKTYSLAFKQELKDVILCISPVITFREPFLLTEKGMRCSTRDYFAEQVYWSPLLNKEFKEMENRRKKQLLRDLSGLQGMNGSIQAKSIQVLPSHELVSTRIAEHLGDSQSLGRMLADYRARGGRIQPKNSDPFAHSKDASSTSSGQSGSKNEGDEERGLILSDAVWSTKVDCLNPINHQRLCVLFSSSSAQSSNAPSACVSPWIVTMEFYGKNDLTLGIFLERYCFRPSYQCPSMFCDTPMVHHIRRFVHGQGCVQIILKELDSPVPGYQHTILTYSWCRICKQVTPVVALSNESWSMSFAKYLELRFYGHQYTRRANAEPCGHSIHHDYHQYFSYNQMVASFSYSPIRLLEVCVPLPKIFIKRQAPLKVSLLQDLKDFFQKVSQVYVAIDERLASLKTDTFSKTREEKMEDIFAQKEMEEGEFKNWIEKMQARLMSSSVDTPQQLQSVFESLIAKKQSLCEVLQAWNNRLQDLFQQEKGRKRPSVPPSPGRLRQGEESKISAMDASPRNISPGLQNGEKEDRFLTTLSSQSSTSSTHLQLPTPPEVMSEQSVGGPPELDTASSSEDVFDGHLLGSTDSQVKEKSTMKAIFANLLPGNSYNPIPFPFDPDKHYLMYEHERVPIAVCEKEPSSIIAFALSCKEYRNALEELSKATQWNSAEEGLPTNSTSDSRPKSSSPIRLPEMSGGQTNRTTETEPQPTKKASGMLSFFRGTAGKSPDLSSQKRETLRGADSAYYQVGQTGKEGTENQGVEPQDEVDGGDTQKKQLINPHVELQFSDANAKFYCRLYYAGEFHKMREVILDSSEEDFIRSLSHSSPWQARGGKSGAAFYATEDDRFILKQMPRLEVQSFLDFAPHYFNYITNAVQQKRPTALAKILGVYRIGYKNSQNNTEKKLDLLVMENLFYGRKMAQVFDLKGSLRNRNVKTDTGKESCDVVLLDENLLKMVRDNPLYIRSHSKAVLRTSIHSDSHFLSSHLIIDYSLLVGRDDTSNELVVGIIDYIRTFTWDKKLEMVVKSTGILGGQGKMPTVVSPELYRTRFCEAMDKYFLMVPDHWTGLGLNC
Assay: Inhibition of PIKfyve (microfluidic electrophoresis kinase assay, PI3P/PS substrate)
Conditions: 12 concentrations
Please respond with reported pIC50 for every item in the list.
# pIC50: negative log10 of molar concentration; output just the value

Ask: pIC50 lookup needed for Cc1cccc(-c2cnn(-c3nc(N4CCOCC4)c4oc(C(=O)NCCS(=O)(=O)N(C)C)cc4n3)c2)c1 [Compound 128] , thanks.
Reply: 7.18

Ask: Given c1ccc(-c2cc(Nc3nc(N4CCOCC4)c4occc4n3)n[nH]2)cc1 [Compound 142] , state its recorded pIC50.
Reply: 6.84

Ask: Could you share which pIC50 value was measured for O=C(NC1CCOCC1)c1cc2nc(-n3ccc(-c4cccc(Br)c4)n3)nc(N3CCOCC3)c2o1 [Compound 220] ?
Reply: 7.79

Ask: Name the reported pIC50 value associated with the compound c1cncc(-c2cc(Nc3nc(N4CCOCC4)c4oc(-c5ccncc5)cc4n3)[nH]n2)c1 [Compound 18]
Reply: 6.84

Ask: pIC50 lookup needed for c1ccc(-c2ccn(-c3nc(N4CCOCC4)c4oc(-c5ccccn5)cc4n3)n2)cc1 [Compound 155] , thanks.
Reply: 7.15

Ask: Name the recorded pIC50 for CN1CCC(NC(=O)c2cc3nc(-n4cc(-c5ccccc5)cn4)nc(N4CCOCC4)c3o2)CC1 [Compound 157] .
Reply: 7.05

Ask: For Cc1cccc(-c2ccn(-c3nc(N4CCOCC4)c4oc(-c5ccccn5)c(C)c4n3)n2)c1 [Compound 122] , what is its reported pIC50?
Reply: 7.90

Ask: Would you kindly share the measured pIC50 for c1cc(-c2cc3nc(Nc4cc(C5CCCC5)n[nH]4)nc(N4CCOCC4)c3o2)ccn1 [Compound 74] ?
Reply: 6.65

Ask: Returns the measured pIC50 for the input compound. Input: Cc1cccc(-c2ccn(-c3nc(N4CCOCC4)c4oc(C(=O)NCC5CC5)cc4n3)n2)c1 [Compound 97]
Reply: 7.77

Ask: Need pIC50, item Cc1cccc(-c2cnn(-c3nc(N4CCOCC4)c4oc(C(=O)NC5CCN(C)C5)cc4n3)c2)c1 (centres unmarked) [Compound 124]
Reply: 8.33

Ask: Data request, read-out pIC50, for Cc1cccc(-c2cnn(-c3nc(N4CCOCC4)c4oc(C(=O)NCCCS(C)(=O)=O)cc4n3)c2)c1 [Compound 119]
Reply: 8.09

Ask: Form field: reported pIC50 of Cc1cccc(-c2cnn(-c3nc(N4CCOCC4)c4oc(-c5cccnc5)cc4n3)c2)c1 [Compound 102]
Reply: 7.92

Ask: So what does the record say about pIC50 for Cc1cccc(-c2cnn(-c3nc(N4CCOCC4)c4oc(C(=O)NC5CCCN(C)C5)cc4n3)c2)c1 (centres unmarked) [Compound 123] ?
Reply: 8.48

Ask: Fill in: pIC50 of Cc1cccc(-c2ccn(-c3nc(N4CCOCC4)c4oc(C(=O)NC5CC5)cc4n3)n2)c1 [Compound 96] is ___
Reply: 7.82

Ask: Please report the recorded pIC50 for [2H]C([2H])([2H])c1cccc(-c2cnn(-c3nc(N4CCOCC4)c4oc(-c5ccn(C)n5)cc4n3)c2)c1 [Compound 215] .
Reply: 9.70

Ask: What value of measured pIC50 is listed for Cc1cccc(-c2cc(Nc3nc(N4CCOCC4)c4oc(-c5ccncc5)cc4n3)[nH]n2)n1 [Compound 20] ?
Reply: 8.05

Ask: Which pIC50 value belongs to CCNC(=O)c1cc2nc(-n3cc(-c4cccc(C)c4)cn3)nc(N3CCOCC3)c2o1 [Compound 101] ?
Reply: 8.54

All values here come from patent US20230146395A1.
